- Target or test system: SHP2-C SH2
- Test method notes: SH2 binding enrichment of the phosphorylated peptide, bacterial display (enrichment ratio); higher = better substrate or ligand; peptides without Tyr show the background
Measured attribute: SH2 binding enrichment

(A) FRPPYYHRDCM [HGD_Y334_N337D]
(B) EEQKRYYNAMK [SCN5A_Y1494_K1493R]
Enquiry: Identify the item whose SH2 binding enrichment is the smaller number: A or B Lab note: record the label of whichever item you select.
Return: B
(B: 0.522, A: 0.913)

###

- Tested on: AncSZ
- Test method notes: phosphorylation enrichment, bacterial display (enrichment ratio); higher = better substrate or ligand; peptides without Tyr show the background
Measured attribute: phosphorylation enrichment
Respond numerically, and do not add a unit to the figure.

record_sequence="GAALAYGLDKS [HSPA9_Y230_A225G]" value_observed=0.529
record_sequence="RFLRGYEQDAY [HLA-A_Y137_R138E]" value_observed=0.71
record_sequence="LEITWYPFDME [RIPOR2_Y316_V320M]" value_observed=1.85
record_sequence="PIPAAYNKFDQ [CDC73_Y290_R292K_YF]" value_observed=1.54
record_sequence="VGTTAYVAPEA [IRAK4_Y354_M355V]" value_observed=0.888

Enquiry: Field request: phosphorylation enrichment | item: GPKFGYDEIDN [ACOX1_Y232]
Return: 0.993

Enquiry: Thanks! And KNILCYIQGGS [HYDIN_Y4610] ?
Return: 1.13

Enquiry: Thanks! And VSSPKYGSNDE [TMCC2_Y473_D476N] ?
Return: 0.867

Enquiry: Thanks! And INSLKYAFNIS [EIF2B5_Y583_YF] ?
Return: 0.722

Enquiry: Thanks! And ADCRYYTFPQM [GAMT_Y223_A224T] ?
Return: 3.09

Enquiry: Thanks! And FRARAYGFRGP [CHGA_Y381] ?
Return: 0.839

Enquiry: Thanks! And KPMDTYFDSTR [DYNC2H1_Y2230_YF] ?
Return: 0.79

###

- Target or test system: c-Src SH2
- Test method notes: SH2 binding enrichment of the phosphorylated peptide, bacterial display (enrichment ratio); higher = better substrate or ligand; peptides without Tyr show the background
Measured attribute: SH2 binding enrichment

record_sequence="FEELVYETVRV [FSHB_Y76_K72E]" measured_attribute="SH2 binding enrichment" value_observed=0.514

(A) FEHVGYTTLNR [CHN1_Y148_YF]
(B) VTSLKYSTSPY [BRIP1_Y916]
(C) LDYNEYFRYLN [HPRT1_Y198_D201Y]
(D) CNNFIYGGCRG [SPINT2_Y163]
Enquiry: List these items ordered by SH2 binding enrichment, big to small. Your answer should be the labels, listed in the requested order.
Return: A, D, C, B

(I) RAIGFYSATSK [FAM120A_Y328_YF]
(II) PPTYRYERGSR [INPPL1_Y663]
Enquiry: Identify the item whose SH2 binding enrichment is the smaller number: I or II Lab note: record the label of whichever item you select.
Return: II

(1) CDTKLYTSVPN [DNTTIP2_Y427_A430V]
(2) SRVTQYERDFE [SNX1_Y463]
Enquiry: Identify the item whose SH2 binding enrichment is the smaller number: 1 or 2 Lab note: record the label of whichever item you select.
Return: 2
(2: 0.697, 1: 1.22)

(A) NTYEKYWLFYQ [GATM_Y103_P105L]
(B) SLNEGYARDFD [FBP1_Y216]
Enquiry: Identify the item whose SH2 binding enrichment is the smaller number: A or B Lab note: record the label of whichever item you select.
Return: B
(B: 0.562, A: 0.807)

(a) EMFNPCYGLFE [NEDD4L_Y679_Y679C]
(b) VHYLVYHHHHH [CACNA1H_Y519_H516Y]
Enquiry: Identify the item whose SH2 binding enrichment is the smaller number: a or b Lab note: record the label of whichever item you select.
Return: a

###

- Target or test system: EPHB2 (UniProt P29323)
- Sequence (P29323 whole entry, looked up): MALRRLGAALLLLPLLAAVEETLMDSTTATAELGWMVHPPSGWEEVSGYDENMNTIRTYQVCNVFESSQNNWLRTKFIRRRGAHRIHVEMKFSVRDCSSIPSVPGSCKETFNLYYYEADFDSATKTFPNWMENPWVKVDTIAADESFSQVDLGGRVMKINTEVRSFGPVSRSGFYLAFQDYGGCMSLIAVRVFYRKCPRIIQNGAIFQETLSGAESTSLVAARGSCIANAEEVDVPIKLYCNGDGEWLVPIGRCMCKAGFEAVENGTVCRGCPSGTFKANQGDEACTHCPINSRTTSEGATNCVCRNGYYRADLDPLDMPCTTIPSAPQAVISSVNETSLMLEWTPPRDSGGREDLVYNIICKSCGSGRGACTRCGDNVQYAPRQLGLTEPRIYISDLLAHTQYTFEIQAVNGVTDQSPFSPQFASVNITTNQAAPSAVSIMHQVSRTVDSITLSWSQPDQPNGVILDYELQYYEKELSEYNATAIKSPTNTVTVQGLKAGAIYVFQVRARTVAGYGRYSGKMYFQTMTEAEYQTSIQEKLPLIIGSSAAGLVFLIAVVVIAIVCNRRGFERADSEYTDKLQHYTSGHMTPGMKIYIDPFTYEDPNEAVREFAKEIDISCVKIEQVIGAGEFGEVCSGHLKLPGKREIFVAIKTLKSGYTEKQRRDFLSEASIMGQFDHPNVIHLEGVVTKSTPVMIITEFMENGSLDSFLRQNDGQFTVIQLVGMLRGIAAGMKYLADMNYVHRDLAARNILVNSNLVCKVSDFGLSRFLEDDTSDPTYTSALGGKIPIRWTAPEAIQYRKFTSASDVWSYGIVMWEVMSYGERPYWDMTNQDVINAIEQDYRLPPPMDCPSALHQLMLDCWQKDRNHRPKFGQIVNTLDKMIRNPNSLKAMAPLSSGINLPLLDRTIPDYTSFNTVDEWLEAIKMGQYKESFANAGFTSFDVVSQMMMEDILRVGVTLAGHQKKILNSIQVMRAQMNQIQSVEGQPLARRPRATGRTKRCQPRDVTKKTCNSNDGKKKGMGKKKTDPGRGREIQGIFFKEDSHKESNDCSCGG
- Test method notes: phosphorylation enrichment, bacterial display (enrichment ratio); higher = better substrate or ligand; peptides without Tyr show the background
Measured attribute: phosphorylation enrichment
Respond numerically, and do not add a unit to the figure.

Completed entries (count: 6):
record_sequence="TQIGQYGNGLK [MORC2_Y100]" measured_attribute="phosphorylation enrichment" value_observed=0.258
record_sequence="EVVGRYSLHNA [MLH1_Y183_V185L]" measured_attribute="phosphorylation enrichment" value_observed=0.368
record_sequence="MKNQKYGRIIM [HSD17B4_Y143_K140N]" measured_attribute="phosphorylation enrichment" value_observed=0.34
record_sequence="RREGVYRNNID [PTEN_Y46_L42R]" measured_attribute="phosphorylation enrichment" value_observed=0.517
record_sequence="RSFPSYFTSHV [NEFL_Y442_YF]" measured_attribute="phosphorylation enrichment" value_observed=0.761
record_sequence="VVTFSYKPPGN [RBL2_Y544]" measured_attribute="phosphorylation enrichment" value_observed=0.476

Note: attention shifts to another entry.
Enquiry: Field request: phosphorylation enrichment | item: QAKRKYQEVSK [FES_Y156_A159V]
Return: 0.443

###

- Target or test system: Hck (UniProt P08631)
- Sequence (P08631 whole entry, looked up): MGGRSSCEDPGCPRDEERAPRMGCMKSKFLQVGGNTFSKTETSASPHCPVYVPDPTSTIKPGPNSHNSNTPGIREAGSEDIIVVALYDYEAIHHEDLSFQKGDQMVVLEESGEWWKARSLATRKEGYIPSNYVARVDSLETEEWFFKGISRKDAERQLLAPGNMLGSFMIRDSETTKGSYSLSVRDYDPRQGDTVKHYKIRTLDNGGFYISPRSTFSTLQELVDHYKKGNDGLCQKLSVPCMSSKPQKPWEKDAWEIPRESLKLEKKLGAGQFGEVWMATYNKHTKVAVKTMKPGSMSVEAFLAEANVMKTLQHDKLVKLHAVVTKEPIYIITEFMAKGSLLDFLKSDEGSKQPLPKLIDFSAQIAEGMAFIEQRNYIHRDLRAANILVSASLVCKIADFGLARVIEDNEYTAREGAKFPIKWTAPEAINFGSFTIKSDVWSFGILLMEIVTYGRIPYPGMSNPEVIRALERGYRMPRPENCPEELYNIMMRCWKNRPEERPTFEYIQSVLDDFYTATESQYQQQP
- Test method notes: phosphorylation enrichment, bacterial display (enrichment ratio); higher = better substrate or ligand; peptides without Tyr show the background
Below, each of the sequences is paired with its reported phosphorylation enrichment value.
Respond numerically, and do not add a unit to the figure.

record_sequence="HQEPVCSVAFS [TBL1X_Y509_Y509C]" value_observed=0.69
record_sequence="IIRYNYLLDVL [FGFR4_Y237_S232I]" value_observed=0.557
record_sequence="IRCQGYSHRIL [MYO3B_Y993_R990C]" value_observed=0.475
record_sequence="TNYCLYLRSLE [MTM1_Y71_R69C]" value_observed=0.668
record_sequence="ESMQSYDLDFP [UNC13B_Y243_D238E_YF]" value_observed=0.46
record_sequence="GNLLIYTELGK [HGD_Y166_F169L]" value_observed=5.3
record_sequence="HESEIYGKVCF [CSRP3_Y57_C58G_YF]" value_observed=3.95
record_sequence="APGDAYGDAGY [SYP_Y250]" value_observed=0.463

Enquiry: Give Hck (UniProt P08631) phosphorylation enrichment for SENYTYIWWLN [PSG4_Y271_K267E]
Return: 0.485

Enquiry: Thanks! And VLDSHYPEDEV [C1QBP_Y188_C186S] ?
Return: 0.516

Enquiry: Thanks! And LASLIYNFILF [AQP6_Y231_V234I] ?
Return: 11.5

Enquiry: Thanks! And YQEPVYSVAFS [TBL1X_Y509_H504Y] ?
Return: 11.1

Enquiry: Thanks! And MVIPNYSSRTE [UROC1_Y185] ?
Return: 0.329

Enquiry: Thanks! And ALAHKYLGGGG [HBB_Y146_H147L] ?
Return: 0.347

Enquiry: Thanks! And HLAQRYLIWEC [SCN5A_Y694_R689H] ?
Return: 0.79

Enquiry: Thanks! And FGISGYLVDSV [MAP2K3_Y214] ?
Return: 0.471

Enquiry: Thanks! And CSHKFYGKQCC [ADAMTS16_Y1211] ?
Return: 0.415

Enquiry: Thanks! And GSPPPYRRRKR [MBD1_Y403] ?
Return: 0.537

Enquiry: Thanks! And VEYAKYGSLRG [RET_Y809] ?
Return: 0.758

Enquiry: Thanks! And VGTTAYVAPEA [IRAK4_Y354_M355V] ?
Return: 0.41

Enquiry: Thanks! And MGHVNYGAYIN [GLB1_Y485_R482H] ?
Return: 0.471

###

- Tested on: Fer (mouse)
- Test method notes: phosphorylation enrichment, bacterial display (enrichment ratio); higher = better substrate or ligand; peptides without Tyr show the background
Below, each of the sequences is paired with its reported phosphorylation enrichment value.
Respond numerically, and do not add a unit to the figure.

Completed entries (count: 8):
record_sequence="FSDQVYRQRRK [TH_Y230]" value_observed=0.551
record_sequence="EATKGYPDDPT [G6PD_Y322_L323P]" value_observed=0.483
record_sequence="RLDRSYSFSFS [PEAR1_Y890_YF]" value_observed=0.809
record_sequence="KNILCYIQGGS [HYDIN_Y4610]" value_observed=0.522
record_sequence="VEFAKYGSLRG [RET_Y809_YF]" value_observed=0.4
record_sequence="TQIGQYGNGLK [MORC2_Y100]" value_observed=0.387
record_sequence="PRLMLYNPTTY [EGFR_Y270_P266R]" value_observed=0.7
record_sequence="AQADIYKADFQ [IKBKG_Y308]" value_observed=0.354

Enquiry: Field request: phosphorylation enrichment | item: AAVLNYKAGRD [GRIN2A_Y737]
Return: 0.342

Enquiry: Thanks! And DESEDCRDTVV [CNNM3_Y456_Y456C] ?
Return: 0.515
